Reported IC50 values for the following compounds.
molecular target: full-length RORγt in Jurkat cells (Homo sapiens (Human), UniProt P51449); assay: RORγt 5×RORE Assay in Jurkat Cells (Assay 2); format: cell-based; conditions: 5×RORE Nanoluc luciferase reporter
Sequence (P51449 other isoform, or with tags, fused parts or gaps): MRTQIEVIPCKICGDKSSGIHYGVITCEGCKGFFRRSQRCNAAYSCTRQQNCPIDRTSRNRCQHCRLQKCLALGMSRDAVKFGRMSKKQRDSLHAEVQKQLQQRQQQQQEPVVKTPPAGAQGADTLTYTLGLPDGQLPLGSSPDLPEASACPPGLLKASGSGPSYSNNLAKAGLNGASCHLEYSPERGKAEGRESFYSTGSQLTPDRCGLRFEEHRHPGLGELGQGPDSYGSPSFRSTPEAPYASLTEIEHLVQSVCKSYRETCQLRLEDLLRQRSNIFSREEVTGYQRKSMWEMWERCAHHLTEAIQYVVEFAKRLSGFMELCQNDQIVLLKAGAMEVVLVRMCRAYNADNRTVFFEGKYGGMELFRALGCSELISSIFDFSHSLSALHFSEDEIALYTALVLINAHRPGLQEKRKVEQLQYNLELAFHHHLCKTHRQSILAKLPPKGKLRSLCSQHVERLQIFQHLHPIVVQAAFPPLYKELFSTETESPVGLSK

CCS(=O)(=O)c1ccc(CNC(=O)c2ccc3c(c2)nc(C2CC2)n3Cc2cccc(O)c2O)cc1 [I-154] :: > 1000 nM

Field request: IC50 | item: CNS(=O)(=O)c1ccc(CNC(=O)c2ccc3c(c2)nc(C2(F)CC2)n3Cc2cccc3c2OC(F)(F)O3)cc1 [I-42]
< 100 nM

Note, next up: CS(=O)(=O)c1ccc([C@@H](CO)NC(=O)c2ccc3c(c2)nc(C(F)F)n3Cc2cccc3c2OC(F)(F)O3)cc1 [I-23.2]
100 to 1000 nM

Note, next up: CCS(=O)(=O)c1ccc(CNC(=O)c2ccc3c(c2)nc(C2CC2)n3Cc2cccc3c2OC(C)(C)C3)cc1 [I-118]
> 1000 nM

Note, next up: CCS(=O)(=O)c1ccc(CNC(=O)c2ccc3c(c2)nc(C(F)(F)F)n3Cc2cccc3c2OC(F)(F)O3)nc1 [I-63]
< 100 nM

Note, next up: CS(=O)(=O)N1CCC(CC(=O)Nc2ccc3c(c2)nc(C(F)(F)F)n3Cc2cccc3c2OC(F)(F)O3)CC1 [I-10]
> 1000 nM

Note, next up: CCS(=O)(=O)c1ccc(CNC(=O)c2ccc3c(c2)nc(C2CC2)n3[C@@H](C)c2cccc3c2OC(F)(F)O3)cc1 [I-116]
< 100 nM

---

Reported IC50 values for the following molecules.
target: full-length RORγt in Jurkat cells (Homo sapiens (Human), UniProt P51449); assay: RORγt 5×RORE Assay in Jurkat Cells (Assay 2); settings: 5×RORE Nanoluc luciferase reporter

N#Cc1ccc([C@H](CO)NC(=O)c2ccc3c(c2)nc(C(F)(F)F)n3Cc2cccc3c2OC(F)(F)O3)cc1 [I-122] :: < 100 nM
NS(=O)(=O)c1ccc(CNC(=O)c2ccc3c(c2)nc(C(F)(F)F)n3Cc2cccc3c2OC(F)(F)O3)cc1 [I-51] :: 100 to 1000 nM
CCS(=O)(=O)c1ccc(CNC(=O)c2ccc3c(c2)nc(C(F)(F)F)n3Cc2cccc3c2CCO3)cc1 [I-172] :: < 100 nM
CCS(=O)(=O)c1ccc(CNC(=O)c2ccc3c(c2)nc(C)n3Cc2cccc3c2OC(F)(F)O3)cc1 [I-32] :: > 1000 nM
COCCS(=O)(=O)c1ccc(CC(=O)Nc2ccc3c(c2)nc(C(F)(F)F)n3Cc2cccc3c2OC(F)(F)O3)cc1 [I-4] :: < 100 nM

Field request: IC50 | item: O=C(NCc1ccc(S(=O)(=O)CCO)cc1)c1ccc2c(c1)nc(C1(F)CC1)n2Cc1cccc2c1OC(F)(F)O2 [I-41]
< 100 nM

Note, next up: CCS(=O)(=O)c1ccc(CNC(=O)c2ccc3c(c2)nc(CC(C)C)n3Cc2cccc3c2OC(F)(F)O3)cc1 [I-33]
< 100 nM

---

Reported pIC50 values for the following compounds.
biological target: full-length RORγt in Jurkat cells (Homo sapiens (Human)); test: RORγt 5×RORE Assay in Jurkat Cells (Assay 2); format: cell-based; settings: 5×RORE Nanoluc luciferase reporter
pIC50: −log10 of the molar value.

Known results for compounds:
CCS(=O)(=O)c1ccc(CNC(=O)c2ccc3c(c2)nc(C(F)(F)F)n3Cc2cccc3nn(C)cc23)cc1 :: 6.00 to 7.00
CCS(=O)(=O)c1ccc(CNC(=O)c2ccc3c(c2)nc(C(C)(F)F)n3Cc2cccc3c2OC(F)(F)O3)cc1 :: > 7.00
CCS(=O)(=O)c1ccc(CNC(=O)c2ccc3c(c2)nc(C(F)(F)F)n3C2(c3cccc(C#N)c3)CC2)cc1 :: 6.00 to 7.00
CS(=O)(=O)c1ccc([C@H](CO)NC(=O)c2ccc3c(c2)nc(C(F)(F)F)n3Cc2cccc3c2OC(F)(F)O3)cc1 :: > 7.00
CCS(=O)(=O)c1ccc(CNC(=O)c2ccc3c(c2)nc(C2CC2)n3Cc2cc(OC)cc(OC)c2)cc1 :: 6.00 to 7.00

Now let's try a different one.
Field request: pIC50 | item: CCS(=O)(=O)c1ccc(CNC(=O)c2ccc3c(c2)nc([C@@H]2C[C@H]2C(=O)OC)n3Cc2cccc3c2OC(F)(F)O3)cc1
6.00 to 7.00

Data provenance: patent US10829481B2
